# credit: the RNAGym collection of RNA variant scans (doi:10.7554/elife.80360)

B1: CPEB3 Ribozyme (parent)
chain: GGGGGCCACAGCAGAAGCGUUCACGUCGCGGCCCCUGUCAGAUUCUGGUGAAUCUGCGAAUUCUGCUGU

Variants of: B1
Procedure Summary: self-cleavage, relative activity (ratio to wild type); higher = more cleavage; co-transcriptional
Each record gets a class by self-cleavage: bin 1 = under 0.2, bin 2 = from 0.2 up to 0.6, bin 3 = 0.6 and over

Take a look at these entries with their results.
# Item Sequence, Category Label
records = [
    ("GGGGGCCACAGCAGAAGCGUUCACGUCGCGGCCCCUGUCAGAUUCUGGUGAAUCUGCGAAUUCUGGUAU", "bin 3"),
    ("GGGGGCCACAUCAGAAGCGCUCACGUCGCGGCCCCUGUCAGAUUCUGGUGAAUCUGCGAAUUCUGCUGU", "bin 1"),
    ("GGGGGACACAUCAGAAGCGUUCACGUCGCGGCCCCUGUCAGAUUCUGGUGAAUCUGCGAAUUCUGCUGU", "bin 2"),
]

Lab note: which band did GGGAGCCACAGCAGAAGCGUUCACGUCGCGGCCCCUGUCAGAUUCUCGUGAAUCUGCGAAUUCUGCUGU land in?
bin 3

Lab note: which band did GGGGGCCACAGCAGAAGCGUUCACGUCGCGGCCCCUGUCAGAUUCUGGUGAAUCUGCGUAUCCUGCUGU land in?
bin 2

Lab note: which band did GGGGGCCACAGCAGAAGCGUUCACGUCGCGGCCCAUGUCAGAUUCUGGUGAAUCUGCGAAUUCUGCUGA land in?
bin 2
